B1: Hairpin Ribozyme (parent)
chain: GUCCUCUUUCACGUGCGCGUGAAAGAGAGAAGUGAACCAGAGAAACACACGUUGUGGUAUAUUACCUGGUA

- Variants of: B1
- method: self-cleavage, relative activity (ratio to wild type); higher = more cleavage; co-transcriptional
experimental_endpoint: self-cleavage

[[record]]
mutation_name = "A24C A30U"
value_measured = 0.146

[[record]]
mutation_name = "A49U G68U"
value_measured = 0.128

[[record]]
mutation_name = "U5G G42C"
value_measured = 0.0932

[[record]]
mutation_name = "C12U A22U"
value_measured = 0.759

[[record]]
mutation_name = "U2G C4U"
value_measured = 0.15

[[record]]
mutation_name = "U5A U63A"
value_measured = 0.206

[[record]]
mutation_name = "C3G G42U"
value_measured = 0.188

[[record]]
mutation_name = "C3A U62G"
value_measured = 0.101

[[record]]
mutation_name = "U7A C16U"
value_measured = 0.85

[[record]]
mutation_name = "A31C U58A"
value_measured = 0.171

[[record]]
mutation_name = "C10A G27C"
value_measured = 0.159

[[record]]
mutation_name = "A44G U55G"
value_measured = 0.185

[[record]]
mutation_name = "U67C A71C"
value_measured = 0.359

[[record]]
mutation_name = "G32A C46U"
value_measured = 0.148

[[record]]
mutation_name = "G1A G27A"
value_measured = 0.144

[[record]]
mutation_name = "C38G C50U"
value_measured = 0.0995

[[record]]
mutation_name = "U7G A39G"
value_measured = 0.377

[[record]]
mutation_name = "G1U G19U"
value_measured = 0.134

[[record]]
mutation_name = "C16A G29U"
value_measured = 0.128

[[record]]
mutation_name = "G56C A59G"
value_measured = 0.205

[[record]]
mutation_name = "C3A G69U"
value_measured = 0.212

[[record]]
mutation_name = "G29C G56C"
value_measured = 0.0545

